Assay: yeast display, Sf9 membrane polyspecificity reagent, FACS + sequencing; frameworks hold sequencing errors
Endpoint label: polyreactivity (PSR sort gate)

seq_string=QDQLVESGGGLVQAGGSLRLSCAASGRTFYIYAMGWYRQATGKERELVAAISSYTSTKYADSVKGRFTISRDNAKNTVYLQMICLKPEDTAVYYCASGYPVRYRGYLNWSYYAYDYWGQGTQVTVSS endpoint_label="polyreactivity (PSR sort gate)" observed_result="low polyreactivity"
seq_string=QVQLVESAGGLVQAGGILRLRCAASGFTFTSNAMGWYRQAPGKEREFVADISNIGGDTTYADSVKGRFTISRDNAKNTVYLQMNSLNPEDTAVYYCNADFAFIENDYCGQGTQVTVSS endpoint_label="polyreactivity (PSR sort gate)" observed_result="low polyreactivity"
seq_string=QVQLVESGGGLVQAGGSLRLSCAASGRTFYYYARGWYRQAPGKERELVAAINTRGVSTYYEDSVKGRFTISRDNAKNTVYLQMNSLKPEDTAVYYCNKGFSYGRDYWGQGTQVTVSS endpoint_label="polyreactivity (PSR sort gate)" observed_result="high polyreactivity"
seq_string=QVQLVESGGGLVQAGGSLRLSCAASGSTFFVYAMGWYRQPPGKERELVADINWSSGITYYADSVKGRFTISRDNAKNNVYLQMNSLKREDTAVYYCKKDERYVTWSYFPNRYNYWGQGTQVTVSS endpoint_label="polyreactivity (PSR sort gate)" observed_result="low polyreactivity"
seq_string=QVQLVESGGGLVQAGGSLRLSCAASGRIFQYYTMGWYRQAPGKERELVAAITWSSSRTYYADSVKGRVTISRDNAKNTVYLQMNSLKPEDTAVNYCAAEAQAAWNDYTYWGQGTQVTVSS endpoint_label="polyreactivity (PSR sort gate)" observed_result="high polyreactivity"

====

Test: yeast display, Sf9 membrane polyspecificity reagent, FACS + sequencing; frameworks hold sequencing errors
Endpoint label: polyreactivity (PSR sort gate)

seq_string=QVQLVESGGGLVQAGGSLRLSCAASGRTFYIYAMGWYRPAPGKERELVAAITSGRSTSYADSVKGRFTISRDNAKNTVYLQMNSLKPEDTAVYYCAADQYTYWFGYDYWGQGTQVTVSS observed_result="low polyreactivity"
seq_string=QVQLVESGGGLVQAGGSLRLSCAASGSTIPPYAMGWYRQAPGNERELVAAITSGGSTYYADSVKGRFTISRDNAKNTVYLQMNSLKPEDTAVYYCAASWDPWEYDYWGQGTQVTVSS observed_result="low polyreactivity"
seq_string=QVQLVESGGGLVQEGGSLRLSCAASGIIFGPYVMGWYRQAPGKERELVATISRTGDTYYADSVKGRFTISRDNAKNTVYLQMNSVKPEDTAVYYCNTQDHGYGFTMDYWGQGTQVTVSS observed_result="low polyreactivity"
seq_string=QVQLVESGGGLVQAGRSLRLSCASSGRIFWDYAMGWYRQAPGKERELVAAISWGSGRTYYADSVKGRFTISRDNAKNTVYLQMNSLKPADSAVDYCAARSSYRKMDYWGQGTQVTVSS observed_result="high polyreactivity"
seq_string=QVQLQESGGGLVQAGGCLRLSCAASGTISTAYQMGWYRQAPGKEREFVAAIGYGAITNYADSVKGRFTISRDNAKNTVYLQMNSLKPEDTAVYYCAARRYVAGRGAYDYWGQGTQVTLSS observed_result="low polyreactivity"
seq_string=QVQLVESGGGLVQAGGSLRLSCAASGRTSTRNAMGWYRQAPGKERELVAAITRSGGGTYYADSVKGRFTISRDNAKNTVYLQMNSLKPEDTAVYYCAADQRSPSDGYEYWGQGTQVTVSS observed_result="low polyreactivity"
seq_string=QVHLVESGGGLVQAGGSLRLSCAASGYTFSRNAMGWYRQAPGKERELVASISSRGGSTRYADSVKGRFTISRDNAKNTVYLQMNSLKPEDTAVYYCAVRGLYSPFTYGYWGQGTQVTVSS observed_result="high polyreactivity"
seq_string=QVQLVESGGGLVQAGGSLRLSCAASGRTFSRNAMGWYRQAPGKERELVAGISWRGTSTYYADSVKGRFTISRDNAKNTVYLQMNSLKPEYTAVYYCNRVYEYWSEYDYWGQGTQVTVSS observed_result="high polyreactivity"
seq_string=QVQLVESGGGLVQAGGSLRLSCAASGSIFTKYAMGWYRPAPGKERELVAAISYSGGTRTYYADSVKGRFTSSRDNAKNTVYLQMNSLKPEDTAVYYCAARRYTRRANPAYPYEYWGQGTQVTVSS observed_result="high polyreactivity"
seq_string=QVQLVESGGGLVQAGGSLRLSCAASGRIFSYYAMGWYRQAPGKERELVAVISRRGDNTYYADSVKGRFTISRDNAKNTVYLQMNSLKPEDTAVYYCAAYSWYAKDFDYWGQGTQVTVSS observed_result="high polyreactivity"
seq_string=QVQLVESGGCLVQAGGSLRLSCDASGSIFYRNVIGWYRQAPGKERELVATISRGGTTNYADSVKGRFTISRDNAKNTVYLQMNSLKPEDTAVYYCAADASSKLYDYWGQGTQVTVSS observed_result="low polyreactivity"
seq_string=QVQLVESGGGLVQAGGSLRLSCAASGRTFSSYVMGWYRQAPGKERELVASISRRGGSTYYADSVKGRFTISRDNAKNTVYLQMNSLKPEDTAVYYCNADLRGYGRGTDQYTFDYWGQGTQVTVSS observed_result="high polyreactivity"
seq_string=QVQLVESGGGLVQAGGSLRLSCAASGNILSVYTMGWYRQAPGKERELVATITYSGDRTYADSVKGRFTISRDNAKKTVYLQMNSLKPEDTAVYYCNAVYYREGMDYWGQGTQVTVSS observed_result="low polyreactivity"
seq_string=QVQLVESGGGLVQAGGSLRLSCAASGRIFYYNAMGWFRQAPGQERELVAAITSGGSTNYADSVKGRFTISRDNAKNTVYLQMNSLTPEDTAVYYCNARRYGSPRSEVHYDYWGQGTQVTVSS observed_result="low polyreactivity"
seq_string=QVQLVESGGGLVQAGGSLRLSCAASGSIFGYYAMGWYRQAPGKERELVATISNDGSTKYADSVKGRFTISRDNAKNTVYLQMNSLKPEDSAVYYCAADSARHGRDTYQPEYRNDYWGQGTQVTVSS observed_result="low polyreactivity"
seq_string=QVQLVESGGGLVQAGGSLRLSCAASGFTLRRYAMGWYRQAPGKERELVATITSGGTTDYADSVKGRFTISRDNAKNTVYLQMNSLKPEDTAVYYCAAYRRGAYYYWGQGTQVTVSS observed_result="high polyreactivity"
seq_string=QVQLVESGGGLVQAGGSLRLSCAASGRIFQLYAMGWYRQRPGKERELVAAIRYSGDSTYYADSVKGRFTISRDNAKNTVYLQMNSLKPEDTAVYYCAAYWVYLSYYRYDYWGQGTQVTVSS observed_result="high polyreactivity"
seq_string=QVQLVESGGGLVQAGGSLRLSCAASGSIIGYYAMGWYRQAPGKERELVAAITASGGSTYYADSVKGRFTISRDNAKNTVYLQMNSLKPEDTAVYYCAAGTHTDYGRYYYWGQGTQVTVSS observed_result="low polyreactivity"
seq_string=QVQLVESGGGLVQAGGSLRLSCAASGSTLSANAMGWYRQAPGKERELVAAISWNGGSTYYADSVKGRFTISRDNAKNTVYLQMNSLKPEDTAVYYCAAEYIVTYEYWYFGYDYWGQGTQVTVSS observed_result="low polyreactivity"
seq_string=QVHLVESGGGLVQAGGSLRLSCASYGRTFGIYAMGWYRQAPGKERELVATISWRGGSTYYADSVKGRFTISRDNAKNTVYLQMNSLKPEDTAVYYCAAETWYSGYTYDYWGQGTQVTVSS observed_result="low polyreactivity"
seq_string=QVQLVESGGGLVQAGGSLRLSCAASGFTFSEYVMGWYRQAPGKERELVAVITSGSSTYYADSVKGRFTISRDNAKNTVYLQMNSLTPEDTAVYYCAAESYFFSPRTREKFDYWGQGTQVTVSA observed_result="low polyreactivity"

====

Experiment: yeast display, Sf9 membrane polyspecificity reagent, FACS + sequencing; frameworks hold sequencing errors
Endpoint label: polyreactivity (PSR sort gate)

seq_string=QVQLVESGGGLVQAGVSLRLSCHASGSIFYYNTMGWYRQSPGKERELVATISSDGGTNYADSVKGRFTISRDNAKYTVYLQMNSLKPEDTAVYYCAKDGSNRLALPAWDYNYWGQGTQVTVSS observed_result="low polyreactivity"
seq_string=QVQLVESGGGLVQAGGSLRLSCAASGFIFSRYSMGWYRQAPGKERELVAGITSRGGITYYADSVKGRFTISRDNAKNTVYLQMNSLIPEDTAVYYCNAGKSLSKSFDYWGQGTQVTVSS observed_result="high polyreactivity"
seq_string=QVQLVESGGGLVQAGGSLRLSCAASGFTLWLYAMGWSRQAPGKERALVATISYRGDSTYYADSVKGRFTISRDNAKNTVYLQMNSLNPEDTAVYYCARRYTHTGRYYYWGQGTQVTVSS observed_result="high polyreactivity"
seq_string=QVQLVESGGGLVQAGGSLRLSCAASGRTFAFYAMGWYRQAPGKERELVASISSSGDRTYYADSVKGRFTISRVNAKNTVYLQMNSLKPEDTAVYYCAARWRYTYYYWGQGTQVTVSS observed_result="high polyreactivity"
seq_string=QVQLVESGGGLVQAGGSLRLSCAASGSIFQVYAMGWYRQAPGKEREFVAAISYSGGGTYYADSVKGRFTISRDNAKNTVYLQMNSLKPEDTAVYYCAADVSGWEYDYWGQGTQVTVSS observed_result="low polyreactivity"
seq_string=QVQLVESCGGLVQAGGSLRLSCAASGRTFTDYVMGWYRQAPGKERELVAGIRRSGGTYYADSVKGRFTISRDNAKNTVYLQMNSLKPEDTAVYYCAAPVQTGPDPEYDYWGQGTQVTVSS observed_result="low polyreactivity"
seq_string=QVQLVESGGGLVQEGGSLRLSCAASGSIFAKYAMGWYSQAPGKEREFVAGISYSGNTYYADSVKGRFTISRDNAKNTVYLQMNSLKPEDTAVYYCAADGYLQTRRFDYWGQGTQVTVSS observed_result="high polyreactivity"
seq_string=QVNLVESGGGLVQAGGSLRLSCAASGIIFRSYAMGWYRPAPGKARELVADITSTGTSTYYADSVKGRFTISRDNAKNTVYLQMNSLKPEDNAVYYCNADRFGFYPQRDYWGQGTQVTVSW observed_result="high polyreactivity"
seq_string=QVQLVESGGGLVQAGGSLRLSCAASGRTFKYYAMGWYRQAPGKERELVAAISGSGGSTYYADSVKGRFTISRDNAKNTVYLQMNSLKPEDTAVYYCATGGGKTRSYNYWGQGTQVTVSS observed_result="high polyreactivity"
seq_string=QVQLVESGGGLVHAGGSLRISCAASGRTFWVYAMGWYRKAPGKERELVAAISWSGGRTYYADSVKGRFTISRDNAKNTVYLQMNSLKPEDTAVYYCAATTGVRSRRYYYWGQGTQVTVSS observed_result="low polyreactivity"
seq_string=QVQLVESGGGLVQAGGSLRLSCAASGSIFPSYAMGWYRQAPGKERELVAAISSGGTTNYADSVKGRFTISLDNAKNTVYLQMNSLKPEDTAVYYCAAVRGDSEDRYDHWGQGTQVTVSS observed_result="high polyreactivity"
